- measured_target: Muscarinic acetylcholine receptor M2 (Homo sapiens)
- Sequence (P08172 whole entry): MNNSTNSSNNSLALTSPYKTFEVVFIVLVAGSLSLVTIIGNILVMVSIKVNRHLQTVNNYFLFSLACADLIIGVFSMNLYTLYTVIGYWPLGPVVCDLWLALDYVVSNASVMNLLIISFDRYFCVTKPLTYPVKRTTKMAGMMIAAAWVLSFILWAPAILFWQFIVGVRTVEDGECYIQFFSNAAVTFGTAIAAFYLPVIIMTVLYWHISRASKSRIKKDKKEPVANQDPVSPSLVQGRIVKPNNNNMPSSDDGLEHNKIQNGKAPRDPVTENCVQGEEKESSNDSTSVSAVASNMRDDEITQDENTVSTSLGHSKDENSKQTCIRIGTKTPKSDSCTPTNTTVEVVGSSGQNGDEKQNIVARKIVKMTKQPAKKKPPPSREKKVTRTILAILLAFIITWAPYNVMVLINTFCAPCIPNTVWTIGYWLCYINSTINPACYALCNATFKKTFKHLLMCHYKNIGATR
- test_method_notes: Binding affinity against human muscarinic acetylcholine receptor M2 in transfected CHO cells
- Format: cell-based
Overview of reported Ki across a group of compounds:
# value in nM; strip the unit string

Some solved entries appear below for comparison.
INSERT INTO results (compound, units_label, measured) VALUES
  ('NCCC1CCN(C(=O)[C@](O)(c2ccccc2)C2CCCC2)CC1', 'nM', 41),
  ('O=C(NC1CCNCC1)[C@](O)(c1ccccc1)[C@@H]1CCC(F)(F)C1', 'nM', 15000),
  ('CCC1(CCN)CCN(C(=O)[C@](O)(c2ccccc2)[C@@H]2CCC(F)(F)C2)CC1', 'nM', 300),
  ('O=C(N1CCNCC1)[C@](O)(c1ccccc1)[C@@H]1CCC(F)(F)C1', 'nM', 1200),
  ('O=C(N1CCC(CCN2CCCCC2)CC1)[C@](O)(c1ccccc1)[C@@H]1CCC(F)(F)C1', 'nM', 36000),
  ('CC1(CCN)CCN(C(=O)[C@](O)(c2ccccc2)[C@@H]2CCC(F)(F)C2)CC1', 'nM', 210),
  ('NCC=C1CCN(C(=O)[C@](O)(c2ccccc2)[C@@H]2CCC(F)(F)C2)CC1', 'nM', 55),
  ('CC1(N)CCN(C(=O)[C@](O)(c2ccccc2)[C@@H]2CCC(F)(F)C2)CC1', 'nM', 640);

query: What value of Ki has been recorded for this entry: "NCCN1CCN(C(=O)[C@](O)(c2ccccc2)[C@@H]2CCC(F)(F)C2)CC1"
result: 820

query: Would you mind telling me what Ki value was observed for "CN(C)CCC1CCN(C(=O)[C@](O)(c2ccccc2)[C@@H]2CCC(F)(F)C2)CC1" ?
result: 15000

query: Using the record for "NC1CCN(C(=O)[C@](O)(c2ccccc2)C2CCCC2)CC1" , report its Ki.
result: 11

query: Need Ki, item "NCCCC1CCN(C(=O)[C@](O)(c2ccccc2)[C@@H]2CCC(F)(F)C2)CC1"
result: 2800

query: I am curious: what Ki value has been reported for "NC1CCN(C(=O)[C@](O)(c2ccccc2)[C@@H]2CCC(F)(F)C2)CC1" ?
result: 240

query: // lookup Ki for "NCCCCC1CCN(C(=O)[C@](O)(c2ccccc2)[C@@H]2CCC(F)(F)C2)CC1"
result: 4200

query: Look up Ki: "O=C(Nc1ccc2c(c1)CNC2)[C@](O)(c1ccccc1)[C@@H]1CCC(F)(F)C1"
result: 15000

query: Any idea what its Ki is? The compound is "O=C(NCCC1CCNCC1)[C@](O)(c1ccccc1)[C@@H]1CCC(F)(F)C1"
result: 3900

query: Sample NCC1CCC(NC(=O)[C@](O)(c2ccccc2)[C@@H]2CCC(F)(F)C2)CC1 (some centres not stated) — what was its Ki?
result: 6800

query: Quick check: Ki of "O=C(NCC1CCNCC1)[C@](O)(c1ccccc1)[C@@H]1CCC(F)(F)C1" ?
result: 2200

query: Could you share which Ki value was measured for NCC1CCN(C(=O)[C@](O)(c2ccccc2)[C@@H]2CCC(F)(F)C2)C1 (some centres not stated) ?
result: 130

query: Ki lookup needed for "NCc1ccc(NC(=O)[C@](O)(c2ccccc2)[C@@H]2CCC(F)(F)C2)cc1" , thanks.
result: 5300

query: Value lookup for Ki; key = "CC(C)(N)CC1CCN(C(=O)[C@](O)(c2ccccc2)[C@@H]2CCC(F)(F)C2)CC1"
result: 1000

query: Item under review: "NCc1cccc(NC(=O)[C@](O)(c2ccccc2)[C@@H]2CCC(F)(F)C2)c1" . Reported Ki?
result: 2900

====

- test_method_notes: Cmax after 0.3 mg/kg po administration in dog
- Format: ADME, organism-based, Canis lupus familiaris
- Parameters: dose 0.3 mg/kg, route oral
- setup_conditions: in vivo
assay_metric: Cmax (ng/mL)
Form entry: value (ng/mL) — number only.

query: // Cmax lookup, key: "NCCC1CCN(C(=O)[C@](O)(c2ccccc2)[C@@H]2CCC(F)(F)C2)CC1"
result: 43

====

- test_method_notes: Area under curve was determined after 0.3 mg/kg po administration in dog
- Format: ADME, organism-based, Canis lupus familiaris
- Design: dose 0.3 mg/kg, route oral
- setup_conditions: in vivo
assay_metric: AUC (ng·h/mL)
The figure you give is taken to be in ng·h/mL; do not add the unit.

query: Can you share its AUC? I mean this compound: "NCCC1CCN(C(=O)[C@](O)(c2ccccc2)[C@@H]2CCC(F)(F)C2)CC1"
result: 440

====

- test_method_notes: Area under curve was determined after 0.1 mg/kg iv administration in dog
- Assay type: ADME, organism-based, Canis lupus familiaris
- Parameters: dose 0.1 mg/kg, route intravenous
- setup_conditions: in vivo
assay_metric: AUC (ng·h/mL)
Expressed in ng·h/mL, but write only the number.

query: Record request: AUC value, item "NCCC1CCN(C(=O)[C@](O)(c2ccccc2)[C@@H]2CCC(F)(F)C2)CC1"
result: 150

====

- test_method_notes: In vitro metabolic stability determined after 30 min of incubation in human hepatic microsomes
- Format: ADME
- setup_conditions: liver microsomes, read-out: Metabolic stability
hey, just use satisfied if measured remaining at 0.5 h is less than 90%, otherwise not satisfied

INSERT INTO measurements (chemical_string, label_class) VALUES
  ('NCCC1CCN(C(=O)[C@](O)(c2ccccc2)C2CCCC2)CC1', 'satisfied'),
  ('NCCC1CCN(C(=O)[C@](O)(c2ccccc2)[C@@H]2CCC(F)(F)C2)CC1', 'satisfied'),
  ('NC1CCN(C(=O)[C@](O)(c2ccccc2)[C@@H]2CCC(F)(F)C2)CC1', 'satisfied'),
  ('Nc1cccc(CN2CCC(NC(=O)[C@](O)(c3ccccc3)[C@@H]3CCC(F)(F)C3)CC2)n1', 'satisfied');

# next compound below
query: remaining at 0.5 h under 90%? Item: "NCC1CCN(C(=O)[C@](O)(c2ccccc2)[C@@H]2CCC(F)(F)C2)CC1"
result: not satisfied

====

- test_method_notes: Oral bioavailability after 0.3 mg/kg po administration in dog
- Type: ADME, organism-based, Canis lupus familiaris
- setup_conditions: in vivo
assay_metric: bioavailability (%)
Field: numeric (%). Do not append units.

query: What does the record list as bioavailability for "NCCC1CCN(C(=O)[C@](O)(c2ccccc2)[C@@H]2CCC(F)(F)C2)CC1" ?
result: 98

====

- measured_target: Muscarinic acetylcholine receptor M1 (Homo sapiens, UniProt P11229)
- Sequence (P11229 whole entry): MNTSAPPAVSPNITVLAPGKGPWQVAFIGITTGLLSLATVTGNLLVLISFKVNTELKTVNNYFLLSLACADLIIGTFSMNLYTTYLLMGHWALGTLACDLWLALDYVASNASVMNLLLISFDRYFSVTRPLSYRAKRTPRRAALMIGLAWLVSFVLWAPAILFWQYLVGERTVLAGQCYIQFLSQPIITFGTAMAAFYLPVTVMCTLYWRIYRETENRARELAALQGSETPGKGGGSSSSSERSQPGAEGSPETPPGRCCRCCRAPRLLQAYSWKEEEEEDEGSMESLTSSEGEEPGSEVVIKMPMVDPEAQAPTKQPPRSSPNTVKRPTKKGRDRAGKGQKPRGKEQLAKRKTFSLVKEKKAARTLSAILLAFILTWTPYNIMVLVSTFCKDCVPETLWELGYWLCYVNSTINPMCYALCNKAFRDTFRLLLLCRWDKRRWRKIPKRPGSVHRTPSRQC
- test_method_notes: Binding affinity against human Muscarinic acetylcholine receptor M1 in transfected CHO cells
Reported pKi values are given for each entry in this list.
Just so you know, pKi here is -log10 of the concentration in molar units; reply with that number alone.

query: What is its pKi for Muscarinic acetylcholine receptor M1 (Homo sapiens, UniProt P11229)? Entry: "CNCCC1CCN(C(=O)[C@](O)(c2ccccc2)[C@@H]2CCC(F)(F)C2)CC1"
result: 6.85

query: So what pKi did "CC1(N)CCN(C(=O)[C@](O)(c2ccccc2)[C@@H]2CCC(F)(F)C2)CC1" get with Muscarinic acetylcholine receptor M1 (Homo sapiens, UniProt P11229)?
result: 8.33

====

- measured_target: UniProt:P11229
- test_method_notes: Binding affinity against human Muscarinic acetylcholine receptor M1 in transfected CHO cells
assay_metric: Ki (nM)
Write the number in nM without appending the unit.

The following molecules have reported results that may help.
INSERT INTO results (chemical_string, measured_target, assay_metric, units_label, measured) VALUES
  ('NCC(=O)N1CCN(C(=O)[C@](O)(c2ccccc2)[C@@H]2CCC(F)(F)C2)CC1', 'UniProt:P11229', 'Ki', 'nM', 21),
  ('O=C(NCCC1CCNCC1)[C@](O)(c1ccccc1)[C@@H]1CCC(F)(F)C1', 'UniProt:P11229', 'Ki', 'nM', 140),
  ('NCc1ccc(NC(=O)[C@](O)(c2ccccc2)[C@@H]2CCC(F)(F)C2)cc1', 'UniProt:P11229', 'Ki', 'nM', 740);

query: Given the entry "CN(C)CCC1CCN(C(=O)[C@](O)(c2ccccc2)[C@@H]2CCC(F)(F)C2)CC1" , what Ki was observed with UniProt:P11229?
result: 760

query: For UniProt:P11229, provide Ki of "NCCCC1CCN(C(=O)[C@](O)(c2ccccc2)[C@@H]2CCC(F)(F)C2)CC1" please.
result: 92
